assay-notes: Toxicity in African green monkey Vero cells
Format: cell-based
study-conditions: chlorocebus sabaeus
result-type: CC50 (µM)
Field: numeric (µM). Do not append units.

Reference set (2 entries):
COc1ccc(C(=O)/C=C/c2ccc([N+](=O)[O-])o2)cc1    571
O=C(/C=C/c1ccc([N+](=O)[O-])o1)c1ccccc1    444

Data point: `O=C(/C=C/c1ccc([N+](=O)[O-])o1)c1ccc(OCc2ccccc2)cc1` ; CC50 = 515

Please fill in: CC50 reported for `O=C(/C=C/c1ccc([N+](=O)[O-])o1)c1ccc(Cl)cc1` = 558

====

assay-notes: Toxicity in African green monkey Vero cells
Type: cell-based
study-conditions: chlorocebus sabaeus
Measured CC50 accompanies every entry in the list below.
Report only the number, with the unit µM understood.

Field CC50 (entry `O=C(/C=C/c1ccc([N+](=O)[O-])o1)c1ccc(N2CCN(C/C=C/c3ccccc3)CC2)cc1` ) reads 343

Entry under test: `C=C(C)COc1ccc(C(=O)/C=C/c2ccc([N+](=O)[O-])o2)cc1` . Its CC50 was 393

The measured CC50 associated with `O=C(/C=C/c1ccc([N+](=O)[O-])o1)c1ccc(N2CCOCC2)cc1` reads 387

According to the records, this compound `CCN(CC)c1ccc(C(=O)/C=C/c2ccc([N+](=O)[O-])o2)cc1` displays CC50 of 334
